- RUN_DESCRIPTION: Measurement of the approximate solubility at ambient temperature
- Assay type: physicochemical
- REPORTED_CONDITIONS: organic solvent or mixture, thermodynamic from solid, methylcyclohexane, 23° C.
RESULT_TYPE: solubility

If you can, please state the reported solubility value of Cc1cc(OC[P@@]2(=O)OCC[C@@H](c3cccc(Cl)c3)O2)cc(C)c1Cc1ccc(O)c(C(C)C)c1 .
< 40 mg/mL

----------
- RUN_DESCRIPTION: Measurement of the approximate solubility at ambient temperature
- Assay type: physicochemical
- REPORTED_CONDITIONS: organic solvent or mixture, thermodynamic from solid, 1-octanol, 23° C.
RESULT_TYPE: solubility

Fill in the blank: the reported solubility of Cc1cc(OC[P@@]2(=O)OCC[C@@H](c3cccc(Cl)c3)O2)cc(C)c1Cc1ccc(O)c(C(C)C)c1 is ____.
> 200 mg/mL
